System: LOK
Construct: gene STK10
readout: Kd (nM)
Supply the numeric figure in nM, leaving out any unit text.

Answer with the recorded Kd for the compound listed here: Cn1ccc2ncnc(Oc3ccc(Nc4nc5ccccc5[nH]4)cc3)c21
200

Answer with the recorded Kd for the compound listed here: COc1cc2ncn(-c3cc(OCC4CCCO4)c(C(N)=O)s3)c2cc1OC (centres unmarked) [GSK204607]
100

----------
Test system: PRKCI
readout: Kd

Answer with the recorded Kd for the molecule listed here: COc1cc2ncn(-c3cc(OCC4CCCO4)c(C(N)=O)s3)c2cc1OC (stereo not shown)
> 10 µM

----------
System: MLK1
Construct: gene MAP3K9
readout: Kd

Answer with the recorded Kd for the compound listed here: NC(=O)c1nnc2ccccc2c1N
> 10 µM

----------
So I've got a bunch of compounds here, and I need their %Inh values.
System: TRKA
Construct: gene NTRK1
Details: concentration: 1 μM, replicates: in singlicate; n = 1
Supply the numeric figure in %, leaving out any unit text.

Answer with the recorded %Inh for the compound listed here: COc1ccc(CNC(=O)NC2CCN(c3ccnc(Nc4cc(OC)c(OC)c(OC)c4)n3)C2)cc1 (centres unmarked)
73

Answer with the recorded %Inh for the compound listed here: COc1ccc(Nc2nccc(-c3cccc(NC(=O)c4cc5cc(F)ccc5[nH]4)c3)n2)cc1
52

Answer with the recorded %Inh for the compound listed here: Nc1nc(-c2nccs2)c(-c2ccnc3ccccc23)s1
0

Answer with the recorded %Inh for the compound listed here: O=C(Nc1n[nH]c2nc(-c3nccs3)c(Br)cc12)C1CCCC1
0

Answer with the recorded %Inh for the compound listed here: Cc1nnc(-c2ccc3occ(-c4ccc(S(C)=O)cc4)c3c2)[nH]1 (centres unmarked)
28

Answer with the recorded %Inh for the compound listed here: COc1cc2nccc(Nc3ccc(NC(=O)c4ccc(C)cc4)c(O)c3)c2cc1OC.Cl
36

Answer with the recorded %Inh for the compound listed here: CN1C(=O)C(Nc2ccc(Cl)c(C(=O)O)c2)=C(c2ccc(Cl)cc2)C1=O
0

Answer with the recorded %Inh for the compound listed here: Fc1cccc(COc2nnc(-c3ccc4c(c3)CCO4)o2)c1
24

----------
Test system: RPS6KA5(Kin.Dom.1-N-terminal)
Settings: concentration: 1 μM, replicates: in singlicate; n = 1
readout: %Inh (%)
Supply the numeric figure in %, leaving out any unit text.

System RPS6KA5(Kin.Dom.1-N-terminal). Read-out %Inh. Item C[C@@H]1CCCCN1c1cc(-c2ccc3c(N)n[nH]c3c2)nc(N)n1 [GSK2258759] . Report value.
14

System RPS6KA5(Kin.Dom.1-N-terminal). Read-out %Inh. Item Clc1cc(Cl)cc(Nc2ccnc(Nc3cc(Cl)cc(Cl)c3)n2)c1 [GSK175726] . Report value.
8

System RPS6KA5(Kin.Dom.1-N-terminal). Read-out %Inh. Item COC(=O)c1c(-c2ccccc2)c2cc(OC)ccc2c(=O)n1Cc1ccccc1 . Report value.
15

System RPS6KA5(Kin.Dom.1-N-terminal). Read-out %Inh. Item CC(C)(C)c1ccc(C(=O)Nc2cn3cc(Cl)ccc3n2)cc1 . Report value.
0

System RPS6KA5(Kin.Dom.1-N-terminal). Read-out %Inh. Item Cl.NC(=O)c1cccc(Nc2nccc(Nc3ccc(Oc4cccc(Cl)c4)c(Cl)c3)n2)c1 [GW659008] . Report value.
5

System RPS6KA5(Kin.Dom.1-N-terminal). Read-out %Inh. Item Cc1ccc(NC(=O)Nc2cccc(Cl)c2)cc1-c1ccc(C(=O)Nc2ccncc2)cc1 [GSK1398468] . Report value.
10

System RPS6KA5(Kin.Dom.1-N-terminal). Read-out %Inh. Item O=C1NC(=O)C(N2CCc3ccccc32)=C1c1ccccc1Cl [SB-373598] . Report value.
7

System RPS6KA5(Kin.Dom.1-N-terminal). Read-out %Inh. Item CC1=C(C(=O)Nc2cc3cn[nH]c3cc2F)C(c2ccc(C(F)(F)F)cc2)CC(=O)N1 (stereo not drawn) [GSK429286] . Report value.
0

System RPS6KA5(Kin.Dom.1-N-terminal). Read-out %Inh. Item Cc1cccc(-c2nc(-c3ccc(S(C)(=O)=O)cc3)sc2-c2ccnc(NCCc3ccccc3)c2)c1 . Report value.
18

System RPS6KA5(Kin.Dom.1-N-terminal). Read-out %Inh. Item Cc1ccc(-c2cc(-c3c[nH]nc3-c3ccccn3)ccn2)cc1 [GW684088] . Report value.
2

System RPS6KA5(Kin.Dom.1-N-terminal). Read-out %Inh. Item Cn1ccc2ncnc(Oc3ccc(Nc4nc5ccccc5[nH]4)cc3)c21 . Report value.
7

System RPS6KA5(Kin.Dom.1-N-terminal). Read-out %Inh. Item O=C(Nc1n[nH]c2cc(-c3cccc(F)c3F)ccc12)C1CC1 [SB-733894] . Report value.
0

System RPS6KA5(Kin.Dom.1-N-terminal). Read-out %Inh. Item Cn1cncc1-c1ccc2ncnc(Nc3ccc(OCc4ccccc4)cc3)c2c1 [GW320571] . Report value.
28

System RPS6KA5(Kin.Dom.1-N-terminal). Read-out %Inh. Item COc1ccc2nc(-c3cccc(C)n3)nc(Nc3ccncc3)c2c1 [GSK204919] . Report value.
25

System RPS6KA5(Kin.Dom.1-N-terminal). Read-out %Inh. Item Nc1nc(-c2nccs2)c(-c2ccnc3ccccc23)s1 [GW693542] . Report value.
20

System RPS6KA5(Kin.Dom.1-N-terminal). Read-out %Inh. Item O=c1cc(N2CCOCC2)nc2n(Cc3cccc(Cl)c3Cl)ccn12 [GSK2286295] . Report value.
11

System RPS6KA5(Kin.Dom.1-N-terminal). Read-out %Inh. Item COc1cc2ncn(-c3cc(OCC4CCCO4)c(C(N)=O)s3)c2cc1OC (stereo not drawn) [GSK204607] . Report value.
9

System RPS6KA5(Kin.Dom.1-N-terminal). Read-out %Inh. Item COc1cc2nccc(Nc3ccc(NC(=O)c4ccc(C)cc4)c(O)c3)c2cc1OC.Cl [GW440132] . Report value.
18
